Origin of measurements: paper PMC11579209

Assay: Individual predicted steady-state PK parameters (400 mg BID) derived from the final PopPK model
Assay type: in vivo
Conditions: human, plasma, oral, 400 mg, 400 mg BID steady state; all participants, n = 667; read-out: Half-life, geometric mean (%CV) (converted)
Readout name: half-life (h)

• CC(C)Nc1nc2cc(Cl)c(Cl)cc2n1[C@H]1O[C@@H](CO)[C@H](O)[C@@H]1O [maribavir] = 10.9

---

Experiment: Individual predicted steady-state PK parameters (400 mg BID) derived from the final PopPK model
Assay type: in vivo
Settings: human, plasma, oral, 400 mg, 400 mg BID steady state; transplant patients with refractory CMV infection (SOLSTICE only), n = 253; read-out: AUC0–τ, geometric mean (%CV)
Readout name: AUC (µg·h/mL)

• CC(C)Nc1nc2cc(Cl)c(Cl)cc2n1[C@H]1O[C@@H](CO)[C@H](O)[C@@H]1O = 129

---

Experiment: Individual predicted steady-state PK parameters (400 mg BID) derived from the final PopPK model
Format: in vivo
Details: human, plasma, oral, 400 mg, 400 mg BID steady state; all transplant patients with CMV infection, n = 485; read-out: Cmax.ss, geometric mean (%CV)
Readout name: Cmax (ng/mL)

- CC(C)Nc1nc2cc(Cl)c(Cl)cc2n1[C@H]1O[C@@H](CO)[C@H](O)[C@@H]1O: 17200

---

Experiment: Individual predicted steady-state PK parameters (400 mg BID) derived from the final PopPK model
Format: in vivo
Settings: human, plasma, oral, 400 mg, 400 mg BID steady state; all transplant patients with CMV infection, n = 485; read-out: AUC0–τ, geometric mean (%CV)
Readout name: AUC

• CC(C)Nc1nc2cc(Cl)c(Cl)cc2n1[C@H]1O[C@@H](CO)[C@H](O)[C@@H]1O = 128 µg·h/mL

---

Assay: Individual predicted steady-state PK parameters (400 mg BID) derived from the final PopPK model
Format: in vivo
Details: human, plasma, oral, 400 mg, 400 mg BID steady state; healthy volunteers, n = 133; read-out: Half-life, geometric mean (%CV) (converted)
Readout name: half-life (h)

- CC(C)Nc1nc2cc(Cl)c(Cl)cc2n1[C@H]1O[C@@H](CO)[C@H](O)[C@@H]1O: 9.04
